B1: SMG5 (parent)
chain: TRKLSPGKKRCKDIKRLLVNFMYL

Variants of: B1
Assay: protein stability index of a GFP-peptide fusion (GPS, HEK-293T) (PSI 1-6); higher = more stable;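 note: lentivirally expressed fusions sorted by FACS into six bins by GFP to DsRed ratio, PSI derived from sequencing read proportions per bin multiplied by bin number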
Settings: c terminus: a fixed tail appended
Reported protein stability index values for the following variants.

Previously resolved entries follow.
variant_identifier=I14E quantity_kind="protein stability index" recorded_measurement=1.32
variant_identifier=D13V quantity_kind="protein stability index" recorded_measurement=3.74
variant_identifier=P6L quantity_kind="protein stability index" recorded_measurement=2.45
variant_identifier=L18C quantity_kind="protein stability index" recorded_measurement=1.52
variant_identifier=K15A quantity_kind="protein stability index" recorded_measurement=3.83
variant_identifier=K8R quantity_kind="protein stability index" recorded_measurement=2.2
variant_identifier=L17Q quantity_kind="protein stability index" recorded_measurement=1.5
variant_identifier=Y23F quantity_kind="protein stability index" recorded_measurement=1.64
variant_identifier=C11I quantity_kind="protein stability index" recorded_measurement=4.05
variant_identifier=V19G quantity_kind="protein stability index" recorded_measurement=2.1

Now examine the next entry.
protein stability index reported for this variant Y23T : 2.18
